Biological target: T1, CEACAM1 antigen (Sino Biological, Inc.) (UniProt P13688 35-428)
T1 construct: Bought antigen, coated on the ELISA plate; construct not described; also called CEACAM1 (CD66a) antigen; CD66a
T1 sequence (looked up): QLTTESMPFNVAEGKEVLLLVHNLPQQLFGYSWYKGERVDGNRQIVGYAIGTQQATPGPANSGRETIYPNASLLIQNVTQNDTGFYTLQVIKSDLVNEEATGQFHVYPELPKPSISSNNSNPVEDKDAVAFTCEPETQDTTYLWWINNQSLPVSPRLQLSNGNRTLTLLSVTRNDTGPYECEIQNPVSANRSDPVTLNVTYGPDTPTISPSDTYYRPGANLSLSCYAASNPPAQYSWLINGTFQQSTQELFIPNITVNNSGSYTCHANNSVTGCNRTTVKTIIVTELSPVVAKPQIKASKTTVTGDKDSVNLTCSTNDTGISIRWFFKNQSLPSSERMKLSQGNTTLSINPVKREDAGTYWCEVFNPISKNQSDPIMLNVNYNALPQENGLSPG
Experiment: ELISA, CEACAM1 coated 100 ng/well, antibody at 4.57 ng/ml
Description: Antigen CD66c (CEACAM6; Sino Biological, Inc.) and CEACAM1 antigen (Sino Biological, Inc.) were coated on a 96-well plate at a rate of 100 ng per well and then blocked. The primary antibody was diluted 3-fold from 10 ug/ml and bound at 37° C. for 1 hour. […] The washing was carried out at three times between each step, and the TMB reaction was performed, stopped with 1N H₂SO₄ solution at the same amount of TMB solution (100 ul) and then OD value was measured at 450 nm.
Each record here notes measured OD 450 nm.
Give the value in OD 450 nm but do not write OD 450 nm after it.

These recorded examples may help you get a feel for the data.
- recombinant humanized anti-CD66c antibody Protein ID 3007 (Vk7 + VH6) (antibody, human IgG1, V domains shown, also called hu 3007; #43) VH: QVQLVQSGAEVKKPGASMKISCKASGYSFTDYTMNWVKQAPGQNLEWIGLINPFHGGTVSNQRFKVKATLTVDVSTNTAYMELSRLRSDDTAVYYCVRGDPVRHYYALAYWGQGTLVTVSS VL: DIQMTQSPSTLSASVGDRVTITCGASENVYGTLNWYQRKPGKAPKLLIYGATNLADGVPSRFSGSGSGTEYTLTISSLQPDDFATYYCQNVLSAPYTFGGGTKLEIK: 0.27
- recombinant humanized anti-CD66c antibody Protein ID 3043 (Vk8 + VH6) (antibody, V domains shown, also called hu 3043; #71) VH: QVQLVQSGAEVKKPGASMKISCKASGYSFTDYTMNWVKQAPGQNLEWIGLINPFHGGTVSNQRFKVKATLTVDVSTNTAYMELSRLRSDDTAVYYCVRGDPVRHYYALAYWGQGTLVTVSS VL: DIQMTQSPSTLSASVGDRVTITCRASENVYGTLNWYQRKPGKAPKLLIYGATNLADGMPSRFSGSGSGTEYTLTISSLQPDDFATYYCQNVLSAPYTFGGGTKLEIK: 0.27
- recombinant humanized anti-CD66c antibody Protein ID 2938 (Vk5 + VH7) (antibody, human IgG1, V domains shown, also called hu 2938) VH: QVQLVQSGAEVKKPGASMKISCKASGYSFTDYTMNWVRQAPGQGLEWIGLINPFHGGTVSNQRFKVKATLTVDVSTNTAYMELSRLRSDDTAVYYCVRGDPVRHYYALAYWGQGTLVTVSS VL: DIQMTQSPSTLSASVGDRVTITCGASENVYGTLAWYQRKPGKAPKLLIYGATNLADGVPSRFSGSGSGREYTLTISSLQPDDFATYYCQNVLSAPYTFGGGTKLEIK: 0.05

Here is another binder to look at.
Exercise: # query: OD 450 nm of entry anti-CD66c chimeric antibody 8F5 (antibody, human IgG1, V domains shown, also called chimeric 8F5; chi 8F5) VH: EVQLQQSGPELVKPGASMKISCKASGYSFTDYTMNWVKQSHGKNLEWIGLINPFHGGTVSNQRFKVKATLTVDVSSNTAYMELLSLTSDDSAVYYCVRGDPVRHYYALAYWGQGTSVTVSS VL: DIQMTQSPASLSASVGETVTITCGASENVYGTLNWYQRKQGKSPQLLIYGATNLADGMSSRFSGSGSGRQYSLKISSLHPDDVATYYCQNVLSAPYTFGGGTKLEII
Solution: 0.28
